target: 5-HT2B receptor (Homo sapiens); experiment: in vitro
Sequence (P41595 whole entry): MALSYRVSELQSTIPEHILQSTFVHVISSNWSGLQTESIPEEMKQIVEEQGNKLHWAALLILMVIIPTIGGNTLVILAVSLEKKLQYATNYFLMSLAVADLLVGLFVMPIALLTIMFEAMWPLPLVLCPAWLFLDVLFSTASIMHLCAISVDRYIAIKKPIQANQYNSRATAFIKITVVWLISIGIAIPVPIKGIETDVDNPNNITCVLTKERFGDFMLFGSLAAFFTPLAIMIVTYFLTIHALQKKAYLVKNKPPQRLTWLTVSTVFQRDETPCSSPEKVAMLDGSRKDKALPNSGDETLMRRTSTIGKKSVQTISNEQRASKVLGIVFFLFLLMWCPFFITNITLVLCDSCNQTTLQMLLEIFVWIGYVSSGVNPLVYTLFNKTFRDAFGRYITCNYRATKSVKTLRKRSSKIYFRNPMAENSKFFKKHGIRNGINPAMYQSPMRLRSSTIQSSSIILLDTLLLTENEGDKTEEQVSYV
Description: Agonist activity at recombinant human 5-HT2B receptor transfected in CHOK1 cells assessed as calcium mobilization at 10 uM by FLIPR assay
Binary classification by Emax at 10 µM, with 40% as an inclusive lower bound for yes (1); all other cases are no (0).

Query: Exam item: decide whether the reported Emax at 10 µM for O=c1c2c([nH]n1Cc1ccccc1)CCNCC2 is at least 40%.
Result: no (0)

Query: Ok, now Fc1ccc(Cc2cc3c(nn2)CCNCC3)cc1
Result: yes (1)

Query: Ok, now O=c1cc2c(nn1Cc1ccccc1)CCNCC2
Result: yes (1)

----------
target: 5-hydroxytryptamine receptor 2B (Homo sapiens); assay: Agonist activity at recombinant human 5-HT2B receptor transfected in CHOK1 cells assessed as calcium mobilization by FLIPR assay
Sequence (P41595 whole entry): as above
Assay Metric: pEC50
pEC50 here is simply -log10 of the concentration when that concentration is written in mol/L.

FC(F)(F)c1cccc(Cc2cc3c(nn2)CCNCC3)c1 :: 6.35

Query: Look up pEC50: Clc1ccc(Cc2cc3c(nn2)CCNCC3)cc1
Result: 6.39

Query: Ok, now Clc1ccccc1Cc1cc2c(nn1)CCNCC2
Result: 6.10

----------
test system: MDR1; test: in vitro; conditions: dog, MDCK-MDR1, Ratio
Description: Efflux ratio of permeability from basolateral to apical side over apical to basolateral side in MDCK cells expressing MDR1
Assay Metric: efflux ratio
// keep it numeric: no unit symbol after the value

These recorded examples may help you get a feel for the data.
Fc1ccc(Cc2cc3c(nn2)CCNCC3)cc1 :: 1.2
Cc1c(Cc2ccccc2)nnc2c1CCNCC2 :: 1.9
FC(F)(F)c1cccc(Cc2cc3c(nn2)CCNCC3)c1 :: 1.7
c1ccc(Cn2cc3c(n2)CCNCC3)cc1 :: 1
Clc1ccc(Cc2cc3c(nn2)CCNCC3)cc1 :: 1.3

Switching to the query record.
Query: Look up efflux ratio: c1ccc(Cc2cc3c(nn2)CCNCC3)cc1
Result: 1

----------
assay: in vitro; conditions: dog, MDCK, permeability
Description: Permeability in RRCK cells
Papp by entry:
Supply the numeric figure in ×10⁻⁶ cm/s, leaving out any unit text.

c1ccc(Cn2cc3c(n2)CCNCC3)cc1 :: 13
Cc1c(Cc2ccccc2)nnc2c1CCNCC2 :: 14
COc1ccccc1Cc1cc2c(nn1)CCNCC2 :: 16
Clc1ccccc1Cc1cc2c(nn1)CCNCC2 :: 15
c1ccc(Cc2nnc3n2CCNCC3)cc1 :: 2
Clc1ccc(Cc2cc3c(nn2)CCNCC3)cc1 :: 13
c1ccc(Cc2cc3c(nn2)CCNCC3)cc1 :: 14
FC(F)(F)c1cccc(Cc2cc3c(nn2)CCNCC3)c1 :: 13
Fc1ccc(Cc2cc3c(nn2)CCNCC3)cc1 :: 14
CC(c1ccccc1)c1cc2c(nn1)CCNCC2 (stereo in doubt; 15g) :: 13

Switching to the query record.
Query: Look up Papp: O=c1cc2c(nn1Cc1ccccc1)CCNCC2
Result: 13

----------
efflux ratio by entry:
test system: MDR1; experiment: in vitro; details: dog, MDCK-MDR1, Ratio
// keep it numeric: no unit symbol after the value

These recorded examples may help you get a feel for the data.
CC(c1ccccc1)c1cc2c(nn1)CCNCC2 (stereo in doubt; 15g) :: 1.8
O=c1[nH]n(Cc2ccccc2)c2c1CCNCC2 :: 1.2
COc1ccccc1Cc1cc2c(nn1)CCNCC2 :: 1.9
c1ccc(Cc2nnc3n2CCNCC3)cc1 :: 1.3
Clc1ccccc1Cc1cc2c(nn1)CCNCC2 :: 1.1
O=c1cc2c(nn1Cc1ccccc1)CCNCC2 :: 1

Switching to the query record.
Query: Look up efflux ratio: O=c1[nH]c2c(nc1Cc1ccccc1)CCNCC2
Result: 3
